Molecular target: T1, mouse IL-1β (mouse, UniProt P10749 118-269)
T1 construct: also called murine IL-1β
Assay: ProteOn bioanalyzer (BioRad)
Measure name: pKd
Answers are plain numbers, as −log10 of the molar value.

Give the reported pKd for this binder. P1D9 (antibody, V domains shown, also called matured Ig P1D9) VH: QVQLQQWGAGLLKPSETLSLTCAVYGGSFSDYYWSWIRQPPGKGLEWIGEIDHSGSTNYNPSLKSRVTISVDTSRNQFSLSLSSVTAADTAVYYCARASPSSGWTLDYWGQGTLVTVSS VL: QSVLTQPPSVSVSPGQTASITCSGDKLGDKFAFWYQQKPGQSPVLVIYLDNKRPSGIPERFSGSNSGNTATLTISGTQALDEADYYCYAWDNAYEVFGGGTKLTVLG 10.63

Hey, just so you know, these numbers are from patent US20190144535A1.
